- Assay Remarks: collision cross section of modified peptide (TIMS, N2, iRT-aligned); higher = larger / more extended gas-phase ion
- Stated Conditions: charge state: 3; modification: Butyryl
Catalogue of collision cross section readings, one per entry.
Field: numeric (Å²). Do not append units.

// solved cases for collision cross section follow
# Residue String, collision cross section (Å²)
measured = [
    ("ITLSKHQNVQLPR [_ITLSK(Butyryl)HQNVQLPR_]", 503.02),
    ("VGLQVVAVKAPGFGDNR [_VGLQVVAVK(Butyryl)APGFGDNR_]", 500.38),
    ("DSINFLDHINGKK [_DSINFLDHINGK(Butyryl)K_]", 471.81),
]

Entry DAEAAEATAEGALKAEK [_DAEAAEATAEGALK(Butyryl)AEK_] ; collision cross section = 544.71

Entry ANLEKAQAELVGTADEATR [_ANLEK(Butyryl)AQAELVGTADEATR_] ; collision cross section = 578.23

Entry GTVPDDAVEALADSLGKK [_GTVPDDAVEALADSLGK(Butyryl)K_] ; collision cross section = 534.24

Entry HELQANCYEEVKDR [_HELQANCYEEVK(Butyryl)DR_] ; collision cross section = 502.99

Entry ITESVAETAQTIKK [_ITESVAETAQTIK(Butyryl)K_] ; collision cross section = 518.39

Entry SSGPGGQNVNKVNSK [_SSGPGGQNVNK(Butyryl)VNSK_] ; collision cross section = 443.95

Entry ATVASSTQKFQDLGVK [_ATVASSTQK(Butyryl)FQDLGVK_] ; collision cross section = 495.56

Entry DAIHFYNKSLAEHR [_DAIHFYNK(Butyryl)SLAEHR_] ; collision cross section = 511.38

Entry YEQEHAAIQDKLFQVAK [_YEQEHAAIQDK(Butyryl)LFQVAK_] ; collision cross section = 517.33

Entry DTPTSAGPNSFNKGK [_DTPTSAGPNSFNK(Butyryl)GK_] ; collision cross section = 464.51

Entry LTEKELAEAASK [_LTEK(Butyryl)ELAEAASK_] ; collision cross section = 455.88

Entry SLEEEGAAHSGKR [_SLEEEGAAHSGK(Butyryl)R_] ; collision cross section = 478.81

Entry SKHLQEQLNELK [_SK(Butyryl)HLQEQLNELK_] ; collision cross section = 490.06

Entry GFALVGVGSEASSKK [_GFALVGVGSEASSK(Butyryl)K_] ; collision cross section = 499.86

Entry IPQEKCILQTDVK [_IPQEK(Butyryl)CILQTDVK_] ; collision cross section = 487.47

Entry PANEKATDDYHYEK [_PANEK(Butyryl)ATDDYHYEK_] ; collision cross section = 509.24

Entry VFIGNLNTLVVKK [_VFIGNLNTLVVK(Butyryl)K_] ; collision cross section = 490.12

Entry GTITVSAQELKDNR [_GTITVSAQELK(Butyryl)DNR_] ; collision cross section = 481.65

Entry SLFFGGKGAPLQR [_SLFFGGK(Butyryl)GAPLQR_] ; collision cross section = 492.14

---

- Assay Remarks: collision cross section of modified peptide (TIMS, N2, iRT-aligned); higher = larger / more extended gas-phase ion
- Stated Conditions: charge state: 3; modification: GlyGly (K)
± gives the standard deviation.
Catalogue of collision cross section readings, one per entry.

// solved cases for collision cross section follow
# Residue String, collision cross section
data = [
    ("SSGPGGQNVNKVNSK [_SSGPGGQNVNK(GlyGly (K))VNSK_]", "459.52 ± 3 Å²"),
    ("DYSSGFGGKYGVQADR [_DYSSGFGGK(GlyGly (K))YGVQADR_]", "489.79 ± 1.3 Å²"),
    ("DFDTALKHYDK [_DFDTALK(GlyGly (K))HYDK_]", "467.02 ± 1.1 Å²"),
    ("DSINFLDHINGKK [_DSINFLDHINGK(GlyGly (K))K_]", "464.41 ± 1.6 Å²"),
    ("IHNAENIQPGEQKYEYK [_IHNAENIQPGEQK(GlyGly (K))YEYK_]", "529.6 ± 1.2 Å²"),
]

Entry LTEKELAEAASK [_LTEK(GlyGly (K))ELAEAASK_] ; collision cross section = 453.97 ± 1.1 Å²

Entry SNEEGSEEKGPEVR [_SNEEGSEEK(GlyGly (K))GPEVR_] ; collision cross section = 474.76 ± 1.1 Å²
